# assay.protocol: PK study in dogs (intravenous and oral)
# Format: in vivo
# run.parameters: male, beagle, dog, plasma; dogs, oral 20 mg/kg vs intravenous 10 mg/kg; read-out: F (bioavailability)
measure: bioavailability

Query: Determine its reported bioavailability: CC(C)(C)[C@H](NC(=O)[C@H](CC1CCCC1)CN(O)C=O)C(=O)N1CCC(NCc2cc(F)c(F)cc2F)CC1 [IDP-73152]
Result: 95.5%

----------
# assay.protocol: PK study in mice (intravenous and oral)
# Assay type: in vivo, male ICR mice
# run.parameters: male, ICR, mouse, plasma, iv, 10 mg/kg, intravenous 10 mg/kg
measure: AUC(0-inf) (ng·h/mL)
Answer format: numeric, ng·h/mL implied, no suffix.

Query: Note down AUC(0-inf) recorded for `CC(C)(C)[C@H](NC(=O)[C@H](CC1CCCC1)CN(O)C=O)C(=O)N1CCC(NCc2cc(F)c(F)cc2F)CC1`
Result: 6590

----------
# assay.protocol: Tissue distribution at steady state, constant-rate infusion in rats
# Assay type: in vivo
# run.parameters: male, Sprague Dawley, rat, plasma, intravenous infusion 0.8 mg/h, 9 h, read-out: plasma concentration during infusion
measure: concentration at 9 h (ng/mL)
Report as a plain number; the unit ng/mL is understood.

Query: Tell us which concentration at 9 h value is on record for `CC(C)(C)[C@H](NC(=O)[C@H](CC1CCCC1)CN(O)C=O)C(=O)N1CCC(NCc2cc(F)c(F)cc2F)CC1`
Result: 1910

----------
# assay.protocol: PK study in rats (intravenous and oral)
# Assay type: in vivo, Male Sprague Dawley rats
# run.parameters: male, Sprague Dawley, rat, plasma, iv, 10 mg/kg, intravenous 10 mg/kg, read-out: CLp (converted)
measure: clearance

Query: Give reported clearance value for `CC(C)(C)[C@H](NC(=O)[C@H](CC1CCCC1)CN(O)C=O)C(=O)N1CCC(NCc2cc(F)c(F)cc2F)CC1`
Result: ~33.3 mL/min/kg

----------
# assay.protocol: PK study in rats (intravenous and oral)
# Type: in vivo, Male Sprague Dawley rats
# run.parameters: male, Sprague Dawley, rat, plasma, iv, 10 mg/kg, intravenous, across doses of 2.5, 5, and 10 mg/kg, read-out: Vss
# Description: The in vivo experimental protocol was approved by the Institutional Animal Care and Use Committee of Research Laboratory at Ildong pharmaceutical Co., Ltd. (Ref. No.: IDL-PDF-001 and 09005-11004). […] The cumulative excretion of the bile and the urine to infinite time was determined by assuming that the excretion was practically completed by the last collection time. […]
measure: Vd

Query: Please give the documented Vd of CC(C)(C)[C@H](NC(=O)[C@H](CC1CCCC1)CN(O)C=O)C(=O)N1CCC(NCc2cc(F)c(F)cc2F)CC1 [IDP-73152]
Result: 2.45 to 2.78 L/kg

----------
# assay.protocol: Tissue distribution at steady state, constant-rate infusion in rats
# Type: in vivo
# run.parameters: Sprague Dawley, rat, intravenous, 0.8 mg/h, skin, 10 h infusion, read-out: KP,ss
measure: Kp at 10 h
Enter a number only.

Query: Hello, please tell me recorded Kp at 10 h for this one: `CC(C)(C)[C@H](NC(=O)[C@H](CC1CCCC1)CN(O)C=O)C(=O)N1CCC(NCc2cc(F)c(F)cc2F)CC1`
Result: 1.08
